System: MOLT-4 leukemia
Assay: NCI tumour cell line growth inhibition, 48 h
For each of the compounds below, state its GI50.

(Q) Tell me measured GI50 for OC(CN1CCCC2CCCCC21)c1cc2ccccc2c2ccccc12 (centres undefined) please.
(A) 1810 nM

(Q) Report GI50 for `COc1ccc(/C=C2\COc3ccc(O)c(O)c3C2=O)cc1OC`
(A) 1050 nM

(Q) Entry `CC(C)c1[nH]nc2c(NCc3ccc(-c4ccccn4)cc3)nc(SCCN(C)C)nc12` needs its GI50 filled in; supply it.
(A) < 17.8 nM

(Q) Tell us which GI50 value is on record for `O=C(N/N=C/c1cc(Cl)ccc1O)c1ccccc1Nc1ccnc(C(F)(F)F)c1`
(A) 241 nM

(Q) Annotate the compound `CSc1nnc(-c2cc3c([nH]c4ccccc43)c(-c3cccc(O)c3)n2)n1-c1ccc(C)cc1` with its measured GI50.
(A) 3650 nM

(Q) Output measured GI50 for this item: `O=C(N=Nc1c(Cl)c(O)c2ccccc2c1O)C(=O)Nc1cccc(C(F)(F)F)c1`
(A) 2930 nM

(Q) Give the reported value of GI50 for this record: `COc1cc2c3c(n(CCN4CCOCC4)c(=O)c2cc1OC)-c1ccccc1C3=O`
(A) 55500 nM

(Q) Determine its reported GI50: `COc1c(B(O)O)cccc1-c1nc2ccc3[nH]ncc3c2c2c1CCCC2`
(A) 1570 nM

(Q) For CCC[n+]1cc2cc3c(cc2c2c1-c1cc4c(cc1C2)OCO4)OCO3 (tested in a mixture with another compound) , write its GI50.
(A) 251 nM

---

Test system: HCT-116 colon
Assay: NCI tumour cell line growth inhibition, 48 h
Parameter: TGI

(Q) # return recorded TGI for entry O=C1NC2C3CC(OCc4ccccc4)(OCc4ccccc4)C2OC3O1 (stereo unspecified)
(A) > 50 µM

(Q) Please supply the value of reported TGI for the item Nc1nc(Cl)c(N)c(NCC2(CO)CCC(CCc3ccccc3)C2)n1 (stereo unspecified)
(A) 31.3 µM

(Q) Tell me measured TGI for `CN(C)c1cccc(OC(=O)NCCCl)c1` please.
(A) > 100 µM

(Q) Report TGI, nothing else, for this molecule: `COc1c2cc([N+](=O)[O-])cc1CN(C(=O)C(F)(F)F)CCOCCN(C(=O)C(F)(F)F)C2`
(A) > 100 µM

(Q) Given `Nc1ccc(Cn2ccc3c4c(N)nc(N)nc4ccc32)cc1` , respond with its TGI.
(A) 1.5 µM

(Q) Tell me its TGI given `C1=Nc2ccc(cc2)-c2ccc(cc2)N=Cc2ccc(cc2)OCc2cccc(n2)COc2ccc1cc2` as the entry.
(A) > 100 µM

(Q) In one line, give reported TGI of the entry Cc1ccc2c(n1)NC(=O)C(Cc1ccccc1)(N=[N+]=[N-])C2=O (stereo unspecified) .
(A) > 100 µM

(Q) Quickly give me recorded TGI for `O=[N+]([O-])c1cccc(S(=O)(=O)N/N=C/c2cc(I)cc([N+](=O)[O-])c2O)c1`
(A) 71.1 µM

(Q) Using the record for `C[C@@H](NC(=O)Cn1c(Cl)nc2ccccc21)c1ccccc1` , state its measured TGI.
(A) > 100 µM

(Q) Recall and state the measured TGI for CC(=O)NC1CC(C(C)(C)NC(C)=O)CC=C1C (stereo unspecified) .
(A) > 100 µM

(Q) // Input: `CO/C=C1\OC(=O)C=C1OC` . Output its TGI only.
(A) > 100 µM

(Q) Using known records, supply TGI for CC(=O)N1C(CCc2ccccc2)CC(C)(C=O)C1Cc1ccc(O[Si](C(C)C)(C(C)C)C(C)C)cc1 (stereo unspecified)
(A) 9.03 µM

(Q) Kindly indicate its recorded TGI. Item: `O=C(Cn1c2c(c3ccccc31)CCCC2)N1CCCCC1`
(A) > 100 µM

(Q) Given the molecule Cc1ccnc2c(NC(C)CCCN)cc(O)c(O)c12 (stereo unspecified) , write its reported TGI.
(A) > 100 µM

(Q) Return reported TGI. Input molecule: `Cc1cc(-c2nc3n(c2/C=N/N=C(N)N)CCS3)c(C)s1`
(A) 28.7 µM

(Q) Note TGI for the molecule shown: COc1ccc(C(OCC2OC3(COC(c4ccccc4)(c4ccc(OC)cc4)c4ccc(OC)cc4)C(Oc4nc(=O)ccn43)C2O)(c2ccccc2)c2ccc(OC)cc2)cc1 (stereo unspecified)
(A) > 100 µM

---

System: COLO 205 colon
Assay: NCI tumour cell line growth inhibition, 48 h
Field: GI50. Provide a value for each of the compounds that follow.

(Q) Return value of GI50 for input `CCC[CH2][Sn]([CH2]CCC)([O]C(=O)c1cc(F)ccc1F)[O]C(=O)c1cc(F)ccc1F` , no commentary.
(A) 1.12 µM

(Q) Identify the reported GI50 for the following entry. `O=C1c2ccn(CCCNC(CO)(CO)CO)c2C(=O)c2c1c(O)c1ccccc1c2O`
(A) 13.2 µM

(Q) Return GI50 for the following compound: `COCCNCc1ccc(-c2cc3nccc(Oc4ccc(NC(=O)C5(C(=O)Nc6ccc(F)cc6)CC5)cc4F)c3s2)nc1`
(A) 1.55 µM

(Q) Provide measured GI50 value, entry: `CN(C)c1cc2c(Nc3ccc4c(cnn4Cc4ccccc4)c3)ncnc2cn1`
(A) 10.1 µM

(Q) Please report the measured GI50 for `Cc1nn(Cc2ccccc2)cc1C(=O)Nc1sc2c(c1C(N)=O)CCC(=O)C2`
(A) 1.67 µM

(Q) Using the record for CCC[n+]1cc2cc3c(cc2c2c1-c1cc4c(cc1C2)OCO4)OCO3 (tested in a mixture with another compound) , state its measured GI50.
(A) 0.49 µM

(Q) Recall and state the measured GI50 for `O=C(CSC(c1ccccc1)c1ccccc1)N/N=C/c1ccccc1Cl` .
(A) > 71.8 µM

(Q) Give the measured GI50 for C=CCC(N[C@H](CO)c1ccccc1)c1ccccn1 (stereo partly drawn)
(A) > 100 µM

(Q) Quickly give me recorded GI50 for `CC(C)(C)C(=O)c1c(C(F)(F)F)n([O-])c2cc(Cl)c(Cl)cc2[n+]1=O`
(A) 0.683 µM

(Q) Specify measured GI50 for `O=C1C(Cl)=C(Nc2cc(Cl)ccc2O)C(=O)N1Cc1ccccc1` .
(A) 18.3 µM

(Q) Give GI50 for `Cn1cc(C2=C(c3cc[nH]c3)C(=O)NC2=O)c2ccccc21`
(A) > 25 µM

(Q) Quote GI50 reported for COc1ccc(/C=C\c2cc(OC)c(OC)c(OC)c2)cc1OC(=O)CC(N)C(=O)O (stereo not drawn) please.
(A) 4.11 µM

(Q) Query GI50 for `COc1cc2c(NC3CCN(C(C)C)CC3)nc(C3CCCCC3)nc2cc1OCCCN1CCCC1`
(A) 1.66 µM

---

Test system: U251 CNS
Assay: NCI tumour cell line growth inhibition, 48 h
Assign TGI to each entry below.

(Q) Answer with the recorded TGI of `C(=C\c1ccncc1)/c1ccncc1` only.
(A) > 100 µM

(Q) Give the measured TGI for `CC(=O)N1C(=O)c2cc3ccccc3cc21`
(A) > 100 µM

(Q) Kindly indicate its recorded TGI. Item: `NNC(=O)c1cc([N+](=O)[O-])ccc1NC(=O)C12CC3CC(CC(C3)C1)C2`
(A) 37.7 µM

(Q) Look up and state reported TGI for `Cc1c(Cl)cccc1NC(=O)c1sc2nc3c(cc2c1N)C(=O)CCC3`
(A) > 37.4 µM

(Q) Output TGI of `N#C/C(=C\c1ccc([N+](=O)[O-])o1)c1n[nH]c(Cc2ccccc2)n1`
(A) 10.7 µM

---

Give TGI for every item shown.
Tested on: M19-MEL melanoma
Assay: NCI tumour cell line growth inhibition, 48 h

(Q) Determine its reported TGI: Cc1cccc2c1Sc1ccccc1C2NC(=O)CN(C)C (stereo not given)
(A) > 100 µM

(Q) Quickly give me recorded TGI for `Nc1ccc(Cn2ccc3c4c(N)nc(N)nc4ccc32)cc1`
(A) 5.59 µM

(Q) Entry `c1ccc2c(c1)SCCc1cn[nH]c1-2` needs its TGI filled in; supply it.
(A) > 100 µM

(Q) Given the compound `CCOC(=O)C1=C(O)C(=O)c2ccoc2C1=O` , write its reported TGI.
(A) > 100 µM

(Q) For the compound CCCCCCCCC(C)CCCCCCCCC(=O)OCC(COP(=O)([O-])OCC[N+](C)(C)C)OC(=O)CCCCCCCCC(C)CCCCCCCC (stereo not given) , give its measured TGI value.
(A) > 100 µM

---

Tested on: SK-OV-3 ovarian
Test: NCI tumour cell line growth inhibition, 48 h
Please provide measured log10 of TGI for the entries that follow.
Base-10 log of TGI, unit µM.

(Q) Indicate the recorded log10 of TGI value for this compound: CCn1cc(C(=O)N/N=C/c2cccs2)c(=O)c2cc(F)c(N3CCNC(C)C3)c(F)c21 (stereo not given)
(A) 0.53

(Q) Quickly give me recorded log10 of TGI for `C[C@@H](CS[As](C)C)C(=O)N1CCC[C@H]1C(=O)O`
(A) 1.16

(Q) For the compound `O=C1c2ccn(CCCNC(CO)(CO)CO)c2C(=O)c2c1c(O)c1ccccc1c2O` , give its reported log10 of TGI.
(A) 1.98

(Q) Report log10 of TGI for `CSc1nnc(-c2cc3c([nH]c4ccccc43)c(-c3cccc(O)c3)n2)n1-c1ccc(C)cc1`
(A) 1.15

(Q) Output measured log10 of TGI for this item: `O=C(N/N=C/c1cc(Cl)ccc1O)c1ccccc1Nc1ccnc(C(F)(F)F)c1`
(A) 1.28

(Q) Identify the reported log10 of TGI for the following entry. `Clc1cc(OCc2nn3c(Cc4ccccc4)nnc3s2)c(Cl)cc1OCc1nn2c(Cc3ccccc3)nnc2s1`
(A) 1.91

(Q) Please give the documented log10 of TGI of `Cc1nc2c(O)c3c(c(O)c2nc1C)C1C=CC3CC1`
(A) 1.74

(Q) Dear colleague, please send me the reported log10 of TGI for C[C@]12Cc3conc3C(O)=C1CC[C@@H]1C2CC[C@@]2(C)C1CC[C@]2(C)O (stereo not given in full) when you can.
(A) 1.76
